The variants listed here are annotated with their exon inclusion enrichment index.
B1: mRNA-splicing (parent)
chain: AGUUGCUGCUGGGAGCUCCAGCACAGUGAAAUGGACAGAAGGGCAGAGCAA

- Variants of: B1
- TEST METHOD NOTES: exon inclusion enrichment index; higher = more inclusion; WT1 exon 5 minigene, HEK293
Give a plain numeric answer without units written out.

C6A U7A C9A U10A A29G A30C : 0.273
G2A U3C G5C C6A U7C G8A U10A : 0.124
G12U G13C : 0.721
G5A C6G U7C G8A U10A : 0.00406
G5U G8U C9U U32G G33C : 0.0926

Field request: exon inclusion enrichment index | item: G5C C6U G8C C9U U10C G43U C44A
0.0354

Field request: exon inclusion enrichment index | item: C6A U7A C9A U10A A20C
0.58

Field request: exon inclusion enrichment index | item: G5C C6G U7C U10C A20C G21C
2.03

Field request: exon inclusion enrichment index | item: C6A U7C C9A U10C A29G A30G
3.23

Field request: exon inclusion enrichment index | item: G5A C6U U7A G8U C9A C22G
0.0616

Field request: exon inclusion enrichment index | item: C6A U7C C9A U10C A39U A40U
1.76
